# System: BT-549 breast
# method.summary: NCI tumour cell line growth inhibition, 48 h
measured.metric: TGI (µM)
A number alone suffices; assume µM.

COC(=O)[C@]12CC[C@@H](C)[C@H](C)[C@@H]1C1=CC[C@@H]3[C@@]4(C)C(C=O)=C[C@@](C)(CO)[C@@H]4[C@H](O)C[C@@]3(C)[C@]1(C)CC2; 14.1
COc1ccc(N2C(=O)C(Cl)C2c2cc3cc(Br)ccc3nc2Cl)cc1 (stereo not given); 9.11
Brc1ccccc2cc(-c3ccccc3)nc1-2; 56.5
Oc1ccc2c(=S)cc(-c3ccc(Br)cc3)oc2c1O; 14.6

Kindly note: BT-549 breast, CC1(c2ccccc2)O[C@@H]2C[C@H]3[C@@H]4CCC5=CC(=O)C=C[C@]5(C)[C@@]4(F)[C@@H](O)C[C@]3(C)[C@]2(C(=O)CO)O1 (stereo not given in full) , TGI value reported: 38.6
